Below, each entry is listed with its recorded residual activity.
# experimental_target: UniProt P48729
# Sequence (P48729 whole entry, looked up): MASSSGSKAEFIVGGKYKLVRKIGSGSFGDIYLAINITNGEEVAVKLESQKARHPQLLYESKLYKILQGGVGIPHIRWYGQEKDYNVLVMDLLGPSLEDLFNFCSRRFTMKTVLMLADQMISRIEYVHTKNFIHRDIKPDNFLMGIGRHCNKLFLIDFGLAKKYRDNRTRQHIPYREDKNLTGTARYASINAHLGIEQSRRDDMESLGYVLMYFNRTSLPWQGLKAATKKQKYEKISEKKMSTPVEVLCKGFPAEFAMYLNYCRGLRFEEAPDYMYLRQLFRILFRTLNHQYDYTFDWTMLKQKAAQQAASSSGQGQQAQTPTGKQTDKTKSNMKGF
# protocol_description: radiometric filter-binding kinase assay, Kinase HotSpot
# measurement_conditions: compound 0.5 µM; ATP 10 µM
A number alone suffices; assume %.

Below are worked cases with known answers.
C[C@@H]1CCN(C(=O)CC#N)C[C@@H]1N(C)c1ncnc2[nH]ccc12	99.7
NC(=O)c1cccc(-c2cc(Nc3ccc(OC(F)(F)F)cc3)ncn2)c1	103
COc1ccc(S(=O)(=O)N(CCO)c2ccccc2CN(C)C/C=C/c2ccc(Cl)cc2)cc1	99.3

Value of measured residual activity for the entry CS(=O)(=O)CCNCc1ccc(-c2ccc3ncnc(Nc4ccc(OCc5cccc(F)c5)c(Cl)c4)c3c2)o1 : 104

Value of measured residual activity for the entry Fc1ccc(-c2nc3n(c2-c2ccncc2)CCS3)cc1 : 58.8
